Exercise: for every item that follows, state its recorded IC50.
Molecular target: human orexin-1 receptor (Homo sapiens, UniProt O43613)
Construct: expressed in transfected cells; host or cells: CHO cells (selected with G418)
Sequence (O43613 whole entry): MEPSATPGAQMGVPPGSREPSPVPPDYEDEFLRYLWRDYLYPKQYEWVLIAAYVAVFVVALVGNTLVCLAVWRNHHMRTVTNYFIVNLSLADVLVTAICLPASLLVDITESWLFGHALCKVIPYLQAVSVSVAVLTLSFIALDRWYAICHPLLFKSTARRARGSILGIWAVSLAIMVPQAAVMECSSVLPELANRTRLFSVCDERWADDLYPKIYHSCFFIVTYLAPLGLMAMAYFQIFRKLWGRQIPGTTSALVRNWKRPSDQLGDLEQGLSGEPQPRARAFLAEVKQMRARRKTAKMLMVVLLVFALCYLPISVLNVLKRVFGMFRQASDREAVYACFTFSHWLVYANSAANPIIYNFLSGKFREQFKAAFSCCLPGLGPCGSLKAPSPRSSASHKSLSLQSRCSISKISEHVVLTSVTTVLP
Assay: Intracellular calcium measurement (FLIPR), orexin-A induced response in CHO cells expressing the human orexin-1 receptor
Format: cell-based
Details: 3 nM orexin-A as agonist, measured using FLIPR Tetra (footnote 1), read-out: OX1 IC50
Description: The orexin receptor antagonistic activity of the compounds of formula (I) is determined in accordance with the following experimental method. Intracellular Calcium Measurements: […] Within the Fluorescent Imaging Plate Reader (FLIPR2 or FLIPR Tetra, Molecular Devices), antagonists are added to the plate in a volume of 10 μl/well, incubated for 10 min and finally 10 μl/well of agonist is added. […] The calculated IC50 values of the compounds may fluctuate depending on the daily cellular assay performance. […]
Output spec: scalar in nM, unitless text.

**Query** // fetch human orexin-1 receptor (Homo sapiens, UniProt O43613) IC50 for "O=C(NC[C@@H]1C[C@@H]2CCC[C@@H]2N1C(=O)c1nc(C2CC2)sc1-c1ccccc1)c1cccc2c1CCO2"
**Result** 48

**Query** // fetch human orexin-1 receptor (Homo sapiens, UniProt O43613) IC50 for "Cc1nc(C(=O)N2[C@H](CNC(=O)c3cccc4c3CCO4)C[C@@H]3CCC[C@@H]32)c(-c2cccc(C(F)(F)F)c2)s1"
**Result** 11

**Query** // fetch human orexin-1 receptor (Homo sapiens, UniProt O43613) IC50 for "Cc1nc(C(=O)N2[C@H](CNC(=O)c3cccc4c3CCO4)C[C@@H]3CCC[C@@H]32)c(-c2ccc(F)c(Br)c2)s1"
**Result** 37

----------
Target: human orexin-2 receptor (Homo sapiens, UniProt O43614)
Construct: expressed in transfected cells; host or cells: CHO cells (selected with G418)
Sequence (O43614 1-444): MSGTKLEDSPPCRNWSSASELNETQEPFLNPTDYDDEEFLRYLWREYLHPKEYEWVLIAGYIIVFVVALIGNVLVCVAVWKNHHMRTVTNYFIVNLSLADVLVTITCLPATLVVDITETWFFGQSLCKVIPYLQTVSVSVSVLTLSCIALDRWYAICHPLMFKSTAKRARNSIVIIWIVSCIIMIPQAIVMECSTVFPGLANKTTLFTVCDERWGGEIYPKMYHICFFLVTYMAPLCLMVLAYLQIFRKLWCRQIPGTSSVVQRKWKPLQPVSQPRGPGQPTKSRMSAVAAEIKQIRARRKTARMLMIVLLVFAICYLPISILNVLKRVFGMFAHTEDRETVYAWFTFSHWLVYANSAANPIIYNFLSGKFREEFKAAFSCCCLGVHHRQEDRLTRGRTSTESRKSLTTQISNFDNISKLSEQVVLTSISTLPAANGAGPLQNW
Assay: Intracellular calcium measurement (FLIPR), orexin-A induced response in CHO cells expressing the human orexin-2 receptor
Type: cell-based
Conditions: 3 nM orexin-A as agonist, measured using FLIPR Tetra (footnote 1), read-out: OX2 IC50
MEASURED_PARAMETER: pIC50
Remember, pIC50 is on a log scale: it is -log10 of the molar concentration.

**Query** Which pIC50 value is on record for Cc1nc(C(=O)N2[C@H](CNC(=O)c3cccc4c3CCO4)C[C@@H]3CCC[C@@H]32)c(-c2cccc(C(F)(F)F)c2)s1 [Example 16] ?
**Result** 7.92

**Query** Which pIC50 value is on record for Cc1nc(C(=O)N2[C@H](CNC(=O)c3cccc4c3CCO4)C[C@@H]3CCC[C@@H]32)c(-c2ccc(F)c(Br)c2)s1 [Example 19] ?
**Result** 7.49

**Query** Which pIC50 value is on record for O=C(NC[C@@H]1C[C@@H]2CCC[C@@H]2N1C(=O)c1nc(C2CC2)sc1-c1ccccc1)c1cccc2c1CCO2 [Example 26] ?
**Result** 7.39
